Settings: 308.15 K; 60000 kPa; Liquid; Vibrating tube method
measured property: mass density (kg/m3)
Report the value in kg/m3 with no unit label.

# compound, measured property, reported result
rows = [
    ("CCCCCCCO [heptan-1-ol]", "mass density", 846.1),
    ("CCCCCCO [hexan-1-ol]", "mass density", 843.5),
    ("CCO [ethanol]", "mass density", 821.4),
    ("CCCCCCCCCCO [decan-1-ol]", "mass density", 851.2),
]

Could you now look at the following compound, please?
The compound listed as CCCCCCCCCCCO [1-undecanol] shows mass density equal to 852.9

----------
Conditions: 348.15 K; 10000 kPa; Liquid; Vibrating tube method
Documented mass density across a set of molecules
Report the value in kg/m3 with no unit label.

# molecule, measured property, reported result
rows = [
    ("CCCCCCCCCCO", "mass density", 798.5),
]

Could you now look at the following molecule, please?
The molecule listed as `CCCCCCCCCO` shows mass density equal to 796.1

----------
Documented mass density across a set of molecules
Details: 278.15 K; 100 kPa; Liquid; Vibrating tube method
Report the value in kg/m3 with no unit label.

# molecule, measured property, reported result
data = [
    ("CCCCO", "mass density", 820.9),
    ("CCO", "mass density", 801.9),
    ("CCCCCCO", "mass density", 828.9),
]

The molecule listed as `CCCCCCCCO` shows mass density equal to 835.2

The molecule listed as `CCCCCCCCCO` shows mass density equal to 836.9

----------
Conditions: 278.15 K; 5000 kPa; Liquid; Vibrating tube method
Documented mass density across a set of molecules
Report the value in kg/m3 with no unit label.

# molecule, reported result
data = [
    ("CCCCO", 824.4),
    ("CCO", 805.9),
    ("CCCCCCCO", 835.4),
]

Could you now look at the following molecule, please?
The molecule listed as `CCCCCO` shows mass density equal to 828.5

----------
Documented mass density across a set of molecules
Details: 338.15 K; 10000 kPa; Liquid; Vibrating tube method
Report the value in kg/m3 with no unit label.

The molecule listed as `CCCCCCO` shows mass density equal to 793.6

The molecule listed as `CCCCCCCCCCO` shows mass density equal to 805.2

The molecule listed as `CCCCCCCCCCCO` shows mass density equal to 807.3

The molecule listed as `CCCCCCCCCO` shows mass density equal to 803

----------
Details: 318.15 K; 45000 kPa; Liquid; Vibrating tube method
measured property: mass density (kg/m3)
Report the value in kg/m3 with no unit label.

# molecule, units, mass density
data = [
    ("CCCCCCCCCO", "kg/m3", 836.6),
    ("CCO", "kg/m3", 804.9),
    ("CCCCCCCO", "kg/m3", 832.7),
    ("CCCCCCCCCCO", "kg/m3", 838.5),
    ("CCCCO", "kg/m3", 822.4),
]

The compound listed as `CCCCCCO` shows mass density equal to 829.7

The compound listed as `CCCCCCCCCCCO` shows mass density equal to 840.1

The compound listed as `CCCO` shows mass density equal to 817.5

The compound listed as `CCCCCCCCO` shows mass density equal to 835.1

----------
Settings: 318.15 K; 5000 kPa; Liquid; Vibrating tube method
measured property: mass density (kg/m3)
Report the value in kg/m3 with no unit label.

Here's what some known entries look like.
# molecule, units, mass density
rows = [
    ("CCCCCCO [hexan-1-ol]", "kg/m3", 804.3),
    ("CCCCO [butan-1-ol]", "kg/m3", 794.5),
    ("CCCCCO [pentan-1-ol]", "kg/m3", 799.8),
    ("CCO [ethanol]", "kg/m3", 772.4),
]

Could you now look at the following molecule, please?
The molecule listed as CCCCCCCCO [octan-1-ol] shows mass density equal to 811

----------
Settings: 318.15 K; 15000 kPa; Liquid; Vibrating tube method
measured property: mass density (kg/m3)
Report the value in kg/m3 with no unit label.

Here's what some known entries look like.
# molecule, mass density (kg/m3)
records = [
    ("CCCCCCO [hexan-1-ol]", 811.4),
    ("CCCCO [butan-1-ol]", 802.4),
    ("CCCCCCCCCCCO [1-undecanol]", 823.7),
    ("CCO [ethanol]", 781.7),
]

The molecule listed as CCCCCO [pentan-1-ol] shows mass density equal to 807.2

----------
Conditions: 288.15 K; 25000 kPa; Liquid; Vibrating tube method
Documented mass density across a set of molecules
Report the value in kg/m3 with no unit label.

Here's what some known entries look like.
# molecule, measured property, reported result
data = [
    ("CCCCO", "mass density", 830.3),
    ("CCCCCCO", "mass density", 837.4),
    ("CCCCCO", "mass density", 834),
]

Could you now look at the following molecule, please?
The molecule listed as `CCCCCCCCCCO` shows mass density equal to 846.1

----------
Conditions: 358.15 K; 40000 kPa; Liquid; Vibrating tube method
Documented mass density across a set of compounds
Report the value in kg/m3 with no unit label.

Here's what some known entries look like.
# compound, mass density, kg/m3
data = [
    ("CCCCCO [pentan-1-ol]", 797.1),
    ("CCCCCCCO [heptan-1-ol]", 804.9),
    ("CCCCCCCCCCCO [1-undecanol]", 813.9),
    ("CCCCCCCCO [octan-1-ol]", 807.7),
    ("CCCCCCO [hexan-1-ol]", 801.3),
]

The compound listed as CCO [ethanol] shows mass density equal to 771.5

The compound listed as CCCCCCCCCO [nonan-1-ol] shows mass density equal to 809.7

----------
Documented mass density across a set of molecules
Details: 358.15 K; 100 kPa; Liquid; Vibrating tube method
± gives the expanded uncertainty stated by the source.

Here's what some known entries look like.
# molecule, mass density
data = [
    ("CCCCCCCCCCO", "783.6 ± 2.4 kg/m3"),
    ("CCCO", "747.7 ± 2.4 kg/m3"),
    ("CCCCCCCO", "774.2 ± 2.5 kg/m3"),
]

Could you now look at the following molecule, please?
The molecule listed as `CCCCCCCCCCCO` shows mass density equal to 786 ± 2.4 kg/m3

----------
Details: 278.15 K; 10000 kPa; Liquid; Vibrating tube method
measured property: mass density (kg/m3)
Report the value in kg/m3 with no unit label.

Here's what some known entries look like.
# compound, reported result
measured = [
    ("CCO [ethanol]", 809.9),
    ("CCCCCCO [hexan-1-ol]", 835),
    ("CCCCCCCCCO [nonan-1-ol]", 842.5),
]

The compound listed as CCCCCCCCO [octan-1-ol] shows mass density equal to 841

----------
Conditions: 288.15 K; 30000 kPa; Liquid; Vibrating tube method
Numbers after ± are expanded uncertainties.
measured property: mass density

Here's what some known entries look like.
# molecule, mass density
data = [
    ("CCCCO", "833.2 ± 2.4 kg/m3"),
    ("CCCCCCCCCO", "846.6 ± 2.5 kg/m3"),
    ("CCCCCCCCO", "845.5 ± 2.4 kg/m3"),
]

Could you now look at the following compound, please?
The compound listed as `CCCCCO` shows mass density equal to 836.9 ± 2.4 kg/m3

----------
Conditions: 328.15 K; 40000 kPa; Liquid; Vibrating tube method
Documented mass density across a set of molecules
Report the value in kg/m3 with no unit label.

Here's what some known entries look like.
# molecule, mass density [kg/m3]
data = [
    ("CCCCCCCCCCO", 829.9),
    ("CCO", 794.2),
]

The molecule listed as `CCCCCCCCO` shows mass density equal to 826.4

The molecule listed as `CCCCCO` shows mass density equal to 817

----------
Settings: 348.15 K; 10000 kPa; Liquid; Vibrating tube method
measured property: mass density (kg/m3)
Report the value in kg/m3 with no unit label.

Here's what some known entries look like.
# compound, measured property, reported result
data = [
    ("CCCCCCCCCCCO [1-undecanol]", "mass density", 800.8),
    ("CCCCCCCO [heptan-1-ol]", "mass density", 790.4),
    ("CCCCCCO [hexan-1-ol]", "mass density", 786.2),
]

The compound listed as CCCCCCCCO [octan-1-ol] shows mass density equal to 793.6
